Molecular target: recombinant human ATX beta isoform with N-terminal purification tag (human, UniProt Q13822 49-863)
Assay: SPR Biacore 3000, His-ATX beta captured on anti-Penta-His, mAb as analyte, bivalent analyte model
Readout label: koff (s⁻¹)
One number for each entry, in s⁻¹.

1) mAb ATXB14 (antibody, V domains shown, Human IgG1/kappa from Fab F104) VH: QVQLVQSGAEVKKPGSSVKVSCKASGGTFSSYAISWVRQAPGQGLEWMGGIIPIFGNTNYAQKFQGRVTITADESTSTAYMELSSLRSEDTAVYYCARDISGYGDLDYWGQGTLVTVSS VL: DIQMTQSPSSLSASVGDRVTITCRASQSIDGWLNWYQQKPGKAPKLLIYAASSLQSGVPSRFSGSGSGTDFTLTISSLQPEDFATYYCQQSYSTPLTFGQGTKVEIK = 0.000583

Now look at this entry.
Form: binder = mAb ATXB6 (antibody, V domains shown, Human IgG1/kappa from Fab F73) VH: QVQLVQSGAEVKKPGSSVKVSCKASGGTFSSYAISWVRQAPGQGLEWMGGIIPIFGTANYAQKFQGRVTITADESTSTAYMELSSLRSEDTAVYYCARDLYIYGDLDYWGQGTLVTVSS VL: DIQMTQSPSSLSASVGDRVTITCRASQSIGGWLNWYQQKPGKAPKLLIYTASSLQSGVPSRFSGSGSGTDFTLTISSLQPEDFATYYCQQSYTYPITFGQGTKVEIK ; koff = 0.000292
